# tested-system: Chromobox protein homolog 1 (Homo sapiens) (UniProt P83916)
# Sequence (P83916 whole entry, looked up): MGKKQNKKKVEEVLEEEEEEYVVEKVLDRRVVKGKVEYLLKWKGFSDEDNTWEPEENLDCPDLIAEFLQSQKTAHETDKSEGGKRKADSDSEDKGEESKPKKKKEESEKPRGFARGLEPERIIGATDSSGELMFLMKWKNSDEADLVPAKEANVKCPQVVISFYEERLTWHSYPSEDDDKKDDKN
# experiment-summary: HTS for Inhibitors of HP1-beta Chromodomain Interactions with Methylated Histone Tails; also: nearly all actives have a fitted effect of over 70% in size
# condition-info: AlphaScreen HP1-beta / biotin-H3K9me3 peptide binding; series mostly up to 114 µM
In all, about 390,000 compounds went through this assay and about 2,200 (0.56%) were called active. Not shown: some 3% with an inconclusive outcome. Calls follow the shape of the dose curve; as a rule, active = well fitted inhibition curve with a large enough effect; inconclusive = small, poorly fitted or top-dose-only effect; inactive = no such curve, though single readings can be large or run the other way. This excerpt belongs to a sample that is enriched for actives.
Permitted responses: active, inactive

Call for entry O=S(=O)(NCCS(=O)(=O)N1CCN(c2ccccc2)CC1)c1ccc(Cl)cc1 : inactive

And for COc1cc(/C=C2/SC(=S)N(Cc3ccccc3)C2=O)cc(OC)c1O ? active

And for Cc1c(NC(=O)CCC2CCCCC2)cc(C(=O)N2CCOCC2)cc1[N+](=O)[O-] ? inactive

And for COc1ccc(CNC(=O)c2ccc3c(O)c(S(=O)(=O)c4ccccc4)c(=O)[nH]c3c2)cc1 ? inactive

And for COc1cccc(CNC(=O)CSc2c3c(nc4cc(Cl)ccc24)CCCC3)c1 ? inactive

And for O=C(CCc1cn(Cc2ccc(F)cc2)c2ccccc12)NC1CCCCC1 ? inactive

And for C=C1CCN(Cc2ccc(OC)cc2)S(=O)(=O)c2ccccc21 ? inactive

And for CC1CCN(C(=O)c2ccc3c(c2)NC(=O)CN3)CC1 ? inactive

And for CCOC(=O)c1c(NC(C)=O)c2c3c(sc2n1Cc1c(C)cc(C)cc1C)CCCC3 ? inactive

And for COC(=O)c1ccccc1NS(=O)(=O)c1ccc2c(c1)CCCN2C(C)=O ? inactive

And for O=C(O)c1ccccc1N=N/C(=N/Nc1cc(S(=O)(=O)O)ccc1O)c1ccccc1 ? active

And for Cc1noc(C)c1S(=O)(=O)Nc1ccc(C(=O)N2CCN(c3ccc(F)cc3)CC2)cc1 ? inactive

And for Oc1ccc2ccccc2c1N=Nc1nccs1 ? active

And for Cc1ccc(CSCC2Nc3ccc(C(=O)N4CCN(c5ccc(F)cc5)CC4)cc3NC2=O)cc1 (stereo not given) ? active

And for CC(Sc1oc(-c2ccco2)nc1S(=O)(=O)c1ccc(Br)cc1)c1ccccc1 (stereo not given) ? inactive

And for COc1ccc(CCC(=O)NCCc2csc(-c3ccc(Cl)cc3)n2)cc1 ? inactive

And for C=CCn1c(CCc2ccc(OC(C)C)cc2)n[nH]c1=S ? inactive

And for Cc1c(NC(=O)c2cc(=O)c3ccccc3o2)c(=O)n(-c2ccccc2)n1C ? inactive

And for CCOC(=O)c1c(NC(=O)c2cc(-c3ccc(Cl)cc3)on2)sc2c1CCCC2 ? inactive

And for O=C(c1cccs1)c1cn(CCOc2ccc(Cl)cc2)c2ccccc12 ? inactive

And for Cc1nnc(N2CCCC(C(=O)NCCN(C)C)C2)c2nn(-c3ccccc3)c(C)c12 (stereo not given) ? inactive

And for c1ccc(Cn2nnc3c(N4CCCCC4)ncnc32)cc1 ? inactive

And for COc1cc(Cl)cc(C2NC(=O)NC(C)=C2C(=O)NCc2ccccc2)c1O (stereo not given) ? inactive

And for COc1ccc(CCN2C(=O)N(c3cccc(OC)c3)C(=O)C2CC(=O)Nc2ccccc2)cc1 (stereo not given) ? inactive

And for COc1ccc(CCNC(=O)CCCCn2c(=O)c3ccccc3n(Cc3ccccc3)c2=O)cc1OC ? inactive

And for CCc1cccc(C)c1Nc1c(-c2ccc(N(C)C)cc2)nc2ncccn12 ? active

And for Nc1ccc2nc3c(=O)[nH]c(=S)[nH]c3nc2c1 ? active

And for COc1cc(/C=C/C(=O)O)cc(S(=O)(=O)Nc2ccccc2C(=O)NCCc2ccccc2)c1OC ? inactive

And for COc1ccc(Cl)cc1NC(=O)CSc1nc(-c2cccs2)cc(C(F)(F)F)n1 ? inactive

And for CCc1nc2nc(C)cc(Nc3ccc(F)c(Cl)c3)n2n1 ? inactive
